- ASSAY_NAME: protein stability index of a GFP-peptide fusion (yeast GPS) (PSI 1-4); higher = more stable; sorted into four equal gates, so the index is relative within each strain
- CONDITION_CONTEXT: ubr1∆
READOUT_KIND: protein stability index

Asked: I would be grateful if you could share the reported protein stability index for TSKQHKRSGHRTAPKSD [RPL18A] .
Given back: 3.06

Asked: Fill in: protein stability index of MENTLGEGSTVNASVDV [SWI3] is ___
Given back: 3.54

Asked: I'd like to know its protein stability index. The sequence in question is ALDIVCSDFVKILNLEK [NUT1]
Given back: 2.29

Asked: Would you mind telling me what protein stability index value was observed for DRDALSGWGAVVYIIKK [PUP3] ?
Given back: 3.13

Asked: # lookup: protein stability index of GVDDQILATNSLRILAK [YJL039C/NUP192]
Given back: 3.24

Asked: Quick check: protein stability index of APQLFPYGSFHQQQLQQ [DSN1] ?
Given back: 3.15

Asked: Form field: reported protein stability index of DSSSNTYRSRAQQVPPY [SIN4]
Given back: 1.61

Asked: I would be grateful if you could share the reported protein stability index for HARTAAVTHNLYYDEDI [PUP2] .
Given back: 2.63

Asked: Quick one: protein stability index for GMPHKFYQGKTGVVYNV [RPL21A] ?
Given back: 2.61

Asked: For CSFITQDKMFVSNPIRK [FAS1] , what is its reported protein stability index?
Given back: 1.22

Asked: Query: protein stability index; subject: DSTSHNNGSSDKSLDSS [MED1]
Given back: 3.08

Asked: So what's the measured protein stability index for this one? IKGIREYEEWQKSVSLL [YDL116W/NUP84]
Given back: 2.55

Asked: So what's the measured protein stability index for this one? ISYLQEVQCTSTPYLEI [PCI8]
Given back: 1.81

Asked: # get_value(readout='protein stability index', item= VRDVAAQDFINAYASFL [RPS19A] )
Given back: 2.21

###

- ASSAY_NAME: protein stability index of a GFP-peptide fusion (yeast GPS) (PSI 1-4); higher = more stable; sorted into four equal gates, so the index is relative within each strain
- CONDITION_CONTEXT: san1∆
Label Not satisfied if protein stability index falls below 3; label Satisfied in every other case.

Asked: protein stability index >= 3 for GGESDSALILMYKGFGL [UBP6] ?
Given back: Satisfied

Asked: Has AEKLVPLPICHANSVVA [YML031W/NDC1] a recorded protein stability index greater than or equal to 3?
Given back: Not satisfied

Asked: For this sequence, is measured protein stability index 3 or higher? TDLENSSLFQEKLLETN [ECM29]
Given back: Not satisfied

Asked: Exam item: decide whether the reported protein stability index for VVTRSKEAFEEEIKQSA [SMC1] is at least 3.
Given back: Satisfied

Asked: Answer whether protein stability index of GYFIINGSEKVLIAQER [RPB2] is greater than or equal to 3.
Given back: Satisfied

Asked: Could you verify whether the entry GKISKPRFLNKQERSKQ [PRP28] shows protein stability index of no less than 3?
Given back: Satisfied

Asked: Check if protein stability index >= 3 (inclusive). Item: GLDQSRIPFSERKLKFS [FAS1]
Given back: Not satisfied

Asked: Item SDEEESVLDEQEQYQTN [SNU114] with protein stability index of 3 or above?
Given back: Satisfied

Asked: protein stability index >= 3 for SDVSDFEGWGHEYIRHL [RPN1] ?
Given back: Satisfied

Asked: Given EKVFTQGLNILEWLENP [FAS1] , state whether its protein stability index is at least 3.
Given back: Satisfied

Asked: Entry GNKKYRALRIETGNFSW [RPS8A] : is its protein stability index no less than 3?
Given back: Satisfied

Asked: Has IPVYCFSHPAHQQRMSR [YCG1] a recorded protein stability index greater than or equal to 3?
Given back: Not satisfied

Asked: Item TTFTKVAAKWNTSLISL [PRP8] with protein stability index of 3 or above?
Given back: Not satisfied
